- Experimental protocol: Apparent Ki value was calculated
- Set-up: species or system Glycine max
Property measured: Ki (µM)
One number for each entry, in µM.

Value of Ki reported for the molecule CC(CCC=C1CC1)C1CC[C@@]2(C)C3CCC4C(C)(C)C(O)CCC45CC35CCC12C (stereo partly specified) is 42
